Cited source for all entries: patent US20230183291A1

Biological target: T1, Biotinylated Human ACE2, His, Avitag protein (ACROBiosystems, AC2-H82E6) (human, UniProt Q9BYF1 18-740)
T1 construct: also called biotinylated ACE2; ACE2 protein; not shown: His tag and Avitag
T1 sequence (Q9BYF1 18-740 limits assumed): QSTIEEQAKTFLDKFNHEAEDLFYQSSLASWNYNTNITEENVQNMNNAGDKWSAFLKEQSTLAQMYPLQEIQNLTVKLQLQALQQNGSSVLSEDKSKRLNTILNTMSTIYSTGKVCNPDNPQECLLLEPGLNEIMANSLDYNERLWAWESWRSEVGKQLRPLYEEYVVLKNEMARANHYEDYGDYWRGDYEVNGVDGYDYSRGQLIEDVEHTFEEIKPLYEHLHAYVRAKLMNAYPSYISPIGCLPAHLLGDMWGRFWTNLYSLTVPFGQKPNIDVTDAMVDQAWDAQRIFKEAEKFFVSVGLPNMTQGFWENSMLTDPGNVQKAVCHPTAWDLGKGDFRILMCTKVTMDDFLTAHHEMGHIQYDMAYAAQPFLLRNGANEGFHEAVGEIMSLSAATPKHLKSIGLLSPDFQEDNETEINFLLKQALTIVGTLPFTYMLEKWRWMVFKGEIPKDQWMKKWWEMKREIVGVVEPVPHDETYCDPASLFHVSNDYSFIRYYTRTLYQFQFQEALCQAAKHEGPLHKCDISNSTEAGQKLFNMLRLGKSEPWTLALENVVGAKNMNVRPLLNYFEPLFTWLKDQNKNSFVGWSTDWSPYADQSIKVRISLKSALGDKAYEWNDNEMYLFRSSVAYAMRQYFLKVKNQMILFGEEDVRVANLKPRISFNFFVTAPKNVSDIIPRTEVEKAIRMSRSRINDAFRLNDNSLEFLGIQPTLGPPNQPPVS
Experiment: SPR single cycle kinetics, ACE2 captured on CAP chip, peptide analyte; geometric mean
Numbered stars: 1 amine (or outer) side, 2 acyl side, 3 side chain; on linkers, the order of the positions; unused ones are H or OH. Bridge positions count the residues as written; N and C are the ends. Square brackets hold non-standard residues; d marks the D form. Ends that are not written are not given here. TATA = O=C(CC[*:1])N1CN(C(=O)CC[*:2])CN(C(=O)CC[*:3])C1; Phe(2-Cl) = N[C@@H](Cc1ccccc1Cl)C(=O)O
Kindly state pKd for each of the entries shown.
Scale note: pKd = -log10(concentration in M).

pKd recorded for this binder, ACNAVLCSWARANS[Phe(2-Cl)]CA (linker 2-7-16 via TATA, bicyclic peptide, TATA scaffold) [BCY17338] , is 8.49

pKd recorded for this binder, CNAVLCSWARANSFC (linker 1-6-15 via TATA, bicyclic peptide without terminal additions) [BCY17688] , is 8.57

pKd recorded for this binder, ACNAVLCSWARANSYCA (linker 2-7-16 via TATA, bicyclic peptide, TATA scaffold) [BCY17690] , is 8.32
